Assay: viability loss in pontine glioma line – cell-based, SU-DIPG-XIII, MIPE5.0, CellTiter-Glo, qHTS, dose response (AID 1347064);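 for AC50: cells exposed to compound for 48 hours before the viability read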
Details: CellTiter-Glo ATP luminescence
Results filed as inconclusive are left out. Calls of active or inactive are those of the source. No cut-off is given here; in the data, nearly all actives have AC50 up to about 23 µM.
Outcome codes: Yes (active), No (inactive)

{"columns": ["compound", "class_name"],
 "data": [
  ["OCCCNc1cc(-c2ccnc(Nc3cccc(Cl)c3)n2)ccn1", "Yes"],
  ["O=C(Nc1cccc(C(F)(F)F)c1)Nc1cc(S(=O)(=O)NC2CC2)ccc1-c1ccsc1", "No"],
  ["C=CC(=O)N1CCC(Oc2cc3c(Nc4ccc(Cl)c(Cl)c4F)ncnc3cc2OC)CC1", "Yes"],
  ["CO[C@@H](C)Cn1c(=O)n(C)c2cnc3ccc(-c4cncc(C(C)(C)O)c4)cc3c21", "Yes"],
  ["OCCn1cc(-c2cnc3nnn(Cc4ccc5ncccc5c4)c3n2)cn1", "No"],
  ["CC1(N)CCN(c2cccnc2NC(=O)c2nc(-c3ncccc3C(F)(F)F)cnc2N)CC1", "No"],
  ["COc1cc2nc(N3CCCN(C)CC3)nc(NC3CCN(Cc4ccccc4)CC3)c2cc1OC", "Yes"],
  ["CCc1cc(Nc2nccc(-c3c(-c4ccc(OC)c(C(=O)Nc5c(F)cccc5F)c4)nc4ccccn34)n2)c(OC)cc1N1CCC(N2CCN(S(C)(=O)=O)CC2)CC1", "Yes"],
  ["Cc1cc(O)cc2c1[C@]1(C)CC[C@H]3C(C)(C)CCC[C@]3(C)[C@H]1C2", "No"],
  ["CC(C)n1ncnc1-c1cn2c(n1)-c1ccc(O[C@@H](C)C(N)=O)cc1OCC2", "Yes"],
  ["CS(=O)(=O)c1ccc(C(=O)Nc2ccc(Cl)c(-c3ccccn3)c2)c(Cl)c1", "No"],
  ["Cc1c(-c2c(-c3ccc(F)o3)sc3ncnc(O[C@@H](Cc4ccccc4OCc4ccnn4CC(F)(F)F)C(=O)O)c23)ccc(OCCN2CCN(C)CC2)c1Cl", "Yes"],
  ["c1ccc(CNc2nc(NCc3ccccc3)c3ccccc3n2)cc1", "Yes"],
  ["Cc1nnc(C(C)C)n1C1CC2CCC(C1)N2CC[C@H](NC(=O)C1CCC(F)(F)CC1)c1ccccc1 (stereo not given in full)", "No"],
  ["C[C@@H]1CCN(C(=O)N2CCCC2)C[C@@H]1N(C)c1ncnc2[nH]ccc12", "No"],
  ["COc1cc2c(Nc3ccc(Cl)c(Cl)c3F)ncnc2cc1OCC1C[C@@H]2CN(C)C[C@@H]2C1 (stereo not given in full)", "Yes"],
  ["CCCCNc1ncc(-c2ccc(CN3CCOCC3)cn2)c(NC2CCC(O)CC2)n1 (stereo not given)", "No"],
  ["C=CCN(/C=C1\\C(=O)O[C@@H](COC)[C@]2(C)C1=C(O)C(=O)C1=C2[C@@H](OC(C)=O)C[C@]2(C)C(=O)CC[C@H]12)CC=C", "Yes"],
  ["Cc1[nH]cnc1CN1CCN(C(=O)N[C@@H](CC(C)C)C(=O)O)[C@@H](Cc2ccccc2)C1=O", "No"],
  ["C=CC(=O)N1CC[C@@H](Oc2nc(Nc3ccc(N4CCC(N5CCN(C)CC5)CC4)cc3)c(C(N)=O)nc2CC)C1", "Yes"],
  ["COc1ccc(S(=O)(=O)Nc2cc(-c3csc(C#N)c3)ccc2C)cc1", "Yes"],
  ["COc1cc2nccc(Oc3ccc(NC(=O)C4(C(=O)Nc5ccc(F)cc5)CC4)cc3)c2cc1OC", "Yes"],
  ["CCCNC(=O)[C@H]1O[C@@H]1C(=O)N[C@H](C(=O)N1CCC[C@H]1C(=O)OC)C(C)CC (stereo not given in full)", "Yes"],
  ["NC(=O)c1ccc2nc(-c3ccc(C4(N)CCC4)cc3)c(-c3ccccc3)n2n1", "Yes"],
  ["O=C(NCC(=O)N1CCCC1)Nc1ccc2cnccc2c1", "No"]
]}

* * *

Assay: JHH-DIPG-1 glioma cell viability, MIPE5.0 library, CellTiter-Glo luminescence, qHTS (AID 1347067);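 note: cells exposed to compound for 48 hours before readout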
Details: JHH-DIPG-1 glioma viability, CellTiter-Glo ATP luminescence
Inconclusive results are not listed. Active and inactive are the calls of the source. Cut-off not given; nearly all actives show AC50 up to about 26 µM.
Outcome codes: 1 (yes) for active, 0 (no) for inactive

{"columns": ["chemical_string", "class_name"],
 "data": [
  ["CC(C)=CCC/C(C)=C/CC/C(C)=C/CSc1ccccc1C(=O)O", "0 (no)"],
  ["CCN(CC)CCNc1ccc(C)c2sc3ccccc3c(=O)c12", "1 (yes)"],
  ["Nc1ncccc1-c1nc2ccc(-c3ccccc3)nc2n1-c1ccc(C2(N)CCC2)cc1", "1 (yes)"]
]}

* * *

Test: viability loss in pontine glioma line – cell-based, SU-DIPG-XIII, MIPE4.0, CellTiter-Glo, qHTS, dose response (AID 1347061);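 note: cells exposed to compound for 48 hours before readout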
Conditions: CellTiter-Glo ATP luminescence
Results filed as inconclusive are left out. Active and inactive are the calls of the source. Cut-off not given; nearly all actives show AC50 up to about 37 µM.
Outcome codes: active, inactive

{"columns": ["molecule", "class_name"],
 "data": [
  ["O=C(NC1CC1)c1cccc(-c2ccc3c(NC(=O)C4CC4)n[nH]c3c2)c1", "active"],
  ["CN(C)/[N+]([O-])=N/Oc1cc(ON[N+](=O)N2CCN(C(=O)c3cc(Cc4n[nH]c(=O)c5ccccc45)ccc3F)CC2)c([N+](=O)[O-])cc1[N+](=O)[O-]", "active"],
  ["CCCCCCCCCCCCCCCC(=O)O[C@@H]1[C@@H](O)[C@@H](O)[C@@H]([C@H](NC(=O)[C@@H]2C[C@@H](CCC)CN2C)[C@H](C)Cl)O[C@@H]1SC", "inactive"],
  ["Cc1cncc2cccc(S(=O)(=O)N3CCCN(C(=O)CN)C[C@@H]3C)c12", "inactive"],
  ["Cc1cc([C@@H](C)Nc2ccccc2C(=O)O)c2nc(N3CCOCC3)cc(=O)n2c1", "active"],
  ["COC1=C2C[C@@H](C)C[C@H](OC)[C@H](O)[C@@H](C)/C=C(\\C)[C@H](OC(N)=O)[C@@H](OC)/C=C/C=C(\\C)C(=O)NC(=CC1=O)C2=O", "active"],
  ["O=C(O)C1=CC(O)C(O)[C@H](O)C1 (stereo partly drawn)", "inactive"],
  ["CCOC(=O)N1c2ccc(C(F)(F)F)cc2[C@@H](N(Cc2cc(C(F)(F)F)cc(C(F)(F)F)c2)C(=O)OC)C[C@H]1CC", "inactive"]
]}

* * *

Assay: viability loss with induced miR-34 in A549 – imaging, A549 dox-inducible miR-34, nuclei and caspase counts, primary screen (AID 1347080)
Conditions: A549 miR-34 inducible, Hoechst nuclei count, 48 h; measured here: total cells without miR-34 induction
measured_metric: cell count

{"columns": ["chemical_string", "measured_metric", "value_reported"],
 "data": [
  ["CCN(CC)CC1CCN(c2ncc3ncnc(Nc4ccc(F)c(Cl)c4)c3n2)CC1", "cell count", 1620],
  ["CCOc1ccn(-c2ccc(F)cc2)c(=O)c1C(=O)Nc1ccc(Oc2ccnc(N)c2Cl)c(F)c1", "cell count", 4210],
  ["O=C(O)c1cc(Oc2ccc([N+](=O)[O-])cc2)cc(Oc2ccc([N+](=O)[O-])cc2)c1", "cell count", 8600],
  ["NC(=O)c1cccc(-c2cccc(OC(=O)NCCCCCCc3ccccc3)c2)c1", "cell count", 5650],
  ["CCOC(=O)N1CCN(/[N+]([O-])=N/Oc2ccc([N+](=O)[O-])cc2[N+](=O)[O-])CC1", "cell count", 1840]
]}

* * *

Assay: growth inhibition, single agents and combos, HTB85, cell-based, BGB or cisplatin IC20 combos, synergistic combos for chromothripsis tumors (AID 1671453);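 note: cells exposed for 96 hours before readout; 0% = vehicle DMSO and 100% = high DMSO killing control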
Settings: HTB85 osteosarcoma cells, drug combinations, measured here: with cisplatin IC20, at 5 µM, stronger effect = higher value
Rule: inhibition under 50% gives rule not met, otherwise rule met.

{"columns": ["compound", "class_name"],
 "data": [
  ["O=c1[nH]c([C@@H]2CCCN2)nc2c1oc1ccc(Cl)cc12", "rule not met"],
  ["CC(=O)Nc1nc(C)c(-c2ccc(Cl)c(S(=O)(=O)NCCO)c2)s1", "rule not met"],
  ["O=C(CCCCCCNC(=O)c1cnc(N(c2ccccc2)c2ccccc2Cl)nc1)NO", "rule not met"],
  ["COc1ccc(C(=O)CC2(O)C(=O)Nc3c(Cl)ccc(Cl)c32)cc1 (stereo not given)", "rule met"],
  ["COc1cc(C=O)c([N+](=O)[O-])cc1OC", "rule not met"],
  ["NC(=O)c1nc(F)c[nH]c1=O", "rule not met"],
  ["Nc1nc2n[nH]nc2c(=O)[nH]1", "rule not met"],
  ["Cc1cn([C@@H]2O[C@H](CO)[C@@H](O)[C@@H]2F)c(=O)[nH]c1=O", "rule not met"],
  ["O=c1cc(N2CCOCC2)oc2c1ccc1ccccc12", "rule not met"],
  ["CC(C)OC(=O)[C@H](C)N[P@](=O)(OC[C@H]1O[C@@H](n2ccc(=O)[nH]c2=O)[C@](C)(F)[C@@H]1O)Oc1ccccc1", "rule not met"],
  ["O=C(COc1cccc2c(=O)[nH]ccc12)c1ccccc1", "rule not met"],
  ["CN(C)C/C=C/C(=O)Nc1ccc(C(=O)Nc2cccc(Nc3ncc(Cl)c(-c4c[nH]c5ccccc45)n3)c2)cc1", "rule met"],
  ["NCCOc1cc(C(=O)Nc2cc(OCCN)c3ccccc3n2)nc(C(=O)Nc2cc(OCCN)c3ccccc3n2)c1", "rule not met"],
  ["CN[C@@H]1CN(c2ccc3c(=O)c(C(=O)O)cn(-c4nccs4)c3n2)C[C@H]1OC", "rule met"],
  ["N=C1CCCN1Cc1[nH]c(=O)[nH]c(=O)c1Cl", "rule not met"],
  ["CCCCc1nc2cc(/C=C/C(=O)NO)ccc2n1CCN(CC)CC", "rule met"],
  ["CO[C@H]1/C=C/O[C@@]2(C)Oc3c(C)c(O)c4c(O)c(c(/C=N\\N5CCN(C6CCCC6)CC5)c(O)c4c3C2=O)NC(=O)/C(C)=C\\C=C\\[C@H](C)[C@H](O)[C@@H](C)[C@@H](O)[C@@H](C)[C@H](OC(C)=O)[C@@H]1C", "rule not met"],
  ["CC(=O)Nc1ccc(C(=O)Nc2ccccc2N)cc1", "rule met"],
  ["Nc1ccccc1NC(=O)c1ccc(CNc2nccc(-c3cccnc3)n2)cc1", "rule met"],
  ["Nc1nc(OCc2cc(Br)cs2)c2[nH]cnc2n1", "rule not met"]
]}
